Experiment: Plasma pharmacokinetics of LAAM in rabbits (intravenous, oral, buccal)
Conditions: both, New Zealand white, rabbit, plasma, po, 1 mg/kg
READOUT LABEL: AUC(0-t) (ng·h/mL)
Only the number, expressed in ng·h/mL, is required.

Data request: Reported AUC(0-t) for CC[C@H](OC(C)=O)C(C[C@H](C)N(C)C)(c1ccccc1)c1ccccc1 [LAAM] : what is it?
Data returned: 65.7

* * *

Assay: Plasma pharmacokinetics of LAAM in rabbits (intravenous, oral, buccal)
Conditions: both, New Zealand white, rabbit, plasma, po, 1 mg/kg
READOUT LABEL: Cmax (ng/mL)
Only the number, expressed in ng/mL, is required.

Data request: Reported Cmax for CC[C@H](OC(C)=O)C(C[C@H](C)N(C)C)(c1ccccc1)c1ccccc1 : what is it?
Data returned: 20.7

* * *

Assay: Plasma pharmacokinetics of LAAM in rabbits (intravenous, oral, buccal)
Conditions: both, New Zealand white, rabbit, plasma, iv, 0.8 mg/kg
READOUT LABEL: Vd (L/kg)
Only the number, expressed in L/kg, is required.

Data request: Reported Vd for CC[C@H](OC(C)=O)C(C[C@H](C)N(C)C)(c1ccccc1)c1ccccc1 : what is it?
Data returned: 30.6

* * *

Experiment: Plasma pharmacokinetics of LAAM in rabbits (intravenous, oral, buccal)
Details: both, New Zealand white, rabbit, plasma, iv, 0.8 mg/kg
Description: Twenty-four New Zealand white rabbits of mixed gender (weighing 3.6-4.0 kg) were obtained from ENVIGO and used in this study. […] After anesthesia, a catheter was inserted via the marginal ear vein for blood collection before dosing and at pre-determined time points (30 min before and at 5, 15, 30 min, and 1, 2, 3, 4, 8, 12, 24, 48, 72, 96, and 120 h) following administration. […]
READOUT LABEL: C0 (ng/mL)
Only the number, expressed in ng/mL, is required.

Data request: Reported C0 for CC[C@H](OC(C)=O)C(C[C@H](C)N(C)C)(c1ccccc1)c1ccccc1 : what is it?
Data returned: 288

* * *

Assay: Plasma pharmacokinetics of LAAM in rabbits (intravenous, oral, buccal)
Conditions: both, New Zealand white, rabbit, plasma, po, 1 mg/kg
Protocol: Twenty-four New Zealand white rabbits of mixed gender (weighing 3.6-4.0 kg) were obtained from ENVIGO and used in this study. […] After anesthesia, a catheter was inserted via the marginal ear vein for blood collection before dosing and at pre-determined time points (30 min before and at 5, 15, 30 min, and 1, 2, 3, 4, 8, 12, 24, 48, 72, 96, and 120 h) following administration. […]
READOUT LABEL: AUC(0-inf) (ng·h/mL)
Only the number, expressed in ng·h/mL, is required.

Data request: Reported AUC(0-inf) for CC[C@H](OC(C)=O)C(C[C@H](C)N(C)C)(c1ccccc1)c1ccccc1 [LAAM] : what is it?
Data returned: 69.5

* * *

Experiment: Plasma pharmacokinetics of LAAM in rabbits (intravenous, oral, buccal)
Conditions: both, New Zealand white, rabbit, plasma, iv, 0.8 mg/kg
READOUT LABEL: AUC(0-t) (ng·h/mL)
Only the number, expressed in ng·h/mL, is required.

Data request: Reported AUC(0-t) for CC[C@H](OC(C)=O)C(C[C@H](C)N(C)C)(c1ccccc1)c1ccccc1 : what is it?
Data returned: 274
